measurement-target: Virion infectivity factor (Human immunodeficiency virus type 1 group M subtype B (isolate BH10)) + Virion infectivity factor (Human immunodeficiency virus type 1 group M subtype B (isolate BRU/LAI)) + Virion infectivity factor (Human immunodeficiency virus type 1 group M subtype B (isolate PCV12)) + Virion infectivity factor (Human immunodeficiency virus type 1 group M subtype B (isolate HXB2)) + DNA dC->dU-editing enzyme APOBEC-3G (Homo sapiens) (UniProt P69720+P69721+P69722+P69723+Q9HC16)
experiment-summary: inhibitors of Vif binding to APOBEC3G peptide, primary screen, biochemical, TR-FRET, GST-Vif 1-94, biotin-A3G peptide, dose response retest (AID 1117319);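 further: Vif residues 1-94 fused to GST binding biotinylated APOBEC3G peptide 110-148; 0% = full assay without inhibitor and 100% = GST in place of GST-Vif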
condition-details: stronger effect = higher value
The campaign covered roughly 260,000 compounds. About 1,500 (0.58%) were called active. Another 5% or so got no clear call; they are omitted. Not all results are given here. Results with a measured potency or affinity are listed apart.
Exercise: for every item that follows, state its recorded inhibition.
Answers are plain numbers, in %.

Example cases with answers are listed next.
{"compound-smiles": "CCCCCCCCn1c2c(c(=N)c3ccccc31)CCC2", "recorded-number": 1.93}
{"compound-smiles": "O=C(/C=C/c1cccs1)N1CCN(c2ccc(F)cc2)CC1", "recorded-number": 3.81}

# return inhibition for each item in the list
1. COc1ccc2nc3ccccc3nc2c1NC(=O)c1ccc(Br)cc1
2. CCOc1ncccc1C(=O)OCC(=O)NC1CCCCCC1
3. COC(=O)c1ccc(N)cc1O
4. O=C(/C=C/c1cccs1)N1CCN(c2ccccc2)CC1
5. COc1ccc2nc3cccc(OC)c3nc2c1
6. COc1ccc2[nH]c(C(=O)NCc3ccccc3)c(C)c2c1
7. Cc1c(Cl)cccc1NS(=O)(=O)c1ccccc1

Found:
[-5.53, -6.35, -0.17, -0.91, 15.1, 1.63, -1.9]

---

measurement-target: Virion infectivity factor (Human immunodeficiency virus type 1 group M subtype B (isolate BH10)) + Virion infectivity factor (Human immunodeficiency virus type 1 group M subtype B (isolate BRU/LAI)) + Virion infectivity factor (Human immunodeficiency virus type 1 group M subtype B (isolate PCV12)) + Virion infectivity factor (Human immunodeficiency virus type 1 group M subtype B (isolate HXB2)) + DNA dC->dU-editing enzyme APOBEC-3G (Homo sapiens) (UniProt P69720+P69721+P69722+P69723+Q9HC16)
experiment-summary: inhibitors of Vif binding to APOBEC3G peptide, primary screen, biochemical, TR-FRET, GST-Vif 1-94, biotin-A3G peptide, dose response retest (AID 1117319);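 further: Vif residues 1-94 fused to GST binding biotinylated APOBEC3G peptide 110-148; 0% = full assay without inhibitor and 100% = GST in place of GST-Vif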
condition-details: stronger effect = higher value
In all, about 260,000 compounds went through this assay and about 1,500 (0.58%) were called active. Another 5% or so got no clear call; they are omitted. The list is a sample of the results. Potency and affinity values are given separately.
Kindly state inhibition for each of the entries shown.
One number for each entry, in %.

// worked examples, inhibition included
{"compound": "CCc1nnc(NS(=O)(=O)c2ccc(NC(=S)Nc3ccc(F)cc3)cc2)s1", "inhibition [%]": -0.27}
{"compound": "Oc1ccc(/C=N/N(c2ccccc2)c2ccccc2)cc1O", "inhibition [%]": 26.2}
{"compound": "COc1ccc2c(c1)C(C)=CC(C)(C)N2C(=O)Nc1ccccc1", "inhibition [%]": 1.41}
{"compound": "CCNC(=O)N1c2ccc(OC)cc2C(C)=CC1(C)C", "inhibition [%]": 18.1}
{"compound": "COc1cc(NC(C)CCCNC(C)C)c2ncccc2c1OC (stereo not drawn)", "inhibition [%]": 3.4}

Would you mind listing inhibition for each of the following compounds?
1. Cc1nc(NCCc2ccccc2)c2nnn(Cc3ccccc3)c2n1
2. O=C(NCc1nnnn1-c1ccc(F)c(F)c1)C(=O)c1c[nH]c2ccccc12
3. Cc1nn(C)cc1/C=C1\SC(=S)NC1=O

Found:
[-8.97, 11.1, -1.22]

For each of the compounds below, state inhibition.
1. CCCCCCCCOC(=O)c1cc([N+](=O)[O-])c(Sc2ncnc3nc[nH]c23)c([N+](=O)[O-])c1
2. O=C(NNS(=O)(=O)c1ccccc1[N+](=O)[O-])c1ccc(F)cc1
3. Cc1cccc(N2CCN(Cc3nc(-c4cccc(Oc5ccccc5)c4)oc3C)CC2)n1

Found:
1: 29.5; 2: -0.91; 3: 3.4

Look up inhibition for the entries below, preserving their order.
1. Cc1ccc(C)c(NC(=O)C2CCN(S(=O)(=O)c3ccc4c(c3)NC(=O)CO4)CC2)c1
2. CC(C)c1ccc(CCNC(=O)CCNC(=O)c2ccc(Br)cc2)cc1
3. COc1ccc(Oc2nc(-c3cccnc3)nc3ccccc23)cc1

Found:
1. -1.93
2. -4.69
3. -18.5

Hi team, please reply with inhibition for each item in this list.
1. Cc1ccc(-n2c(C)cc(/C=C3\SC(=O)NC3=O)c2C)cc1
2. O=Cc1ccc(O)c(O)c1
3. COC(=O)c1cccc(-n2c(C)cc(/C=C3\SC(=O)NC3=O)c2C)c1
4. CCN(CC)c1ccc2cc(C=O)c(=O)oc2c1

Found:
1: -6.8; 2: 0.2; 3: 3.07; 4: 24.5

Required: inhibition, one value per compound below.
1. CC(=O)Nc1ccc(S(=O)(=O)N2CCc3ccccc3C2)cc1
2. Cc1ccc(S(=O)(=O)N(Cc2ccccc2)c2ccccc2C(=O)NCc2cccnc2)cc1
3. CCOC(=O)C(C)(C)Sc1ncnc2nc[nH]c12
4. Cc1cc(/C=C2\SC(=S)NC2=O)c(C)n1C1CC1
5. Fc1ccc2c(c1)c1n[nH]c(=S)nc1n2CCc1ccccc1

Found:
1. 21.6
2. 1.8
3. -1.07
4. 30.7
5. 0.89
